Assay: chemical genetic growth profiling, strain panel (AID 1159580);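 further: tested at 20 µM; growth read once vehicle control cultures reached saturation at 30 °C; 1 = growth at the plate median or of vehicle wells; lower values mean less growth of the strain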
Settings: S. cerevisiae deletion strains, growth OD, locus YNL183C, strain NPR1, stronger effect = lower value
Screen size: about 5,500 compounds; about 2,000 (36%) were called active. Not shown: some 18% with an inconclusive outcome. The list shows a part of the results.
PROPERTY LABEL: normalized growth
API doc: respond with a numeric literal and nothing else, no unit.

Ask: Requested field: normalized growth. Item: CC1(C)N([O-])[N+](=O)C1(C)Br (centres undefined)
Reply: 0.912

Ask: Which measured normalized growth value corresponds to "N#Cc1cccc(CSc2nc3ccc(C(F)(F)F)cc3[nH]2)c1" ?
Reply: 0.92

Ask: # get_value(readout='normalized growth', item= "CN1CCC[C@@H]1CCO[C@](C)(c1ccccc1)c1ccc(Cl)cc1" )
Reply: 0.918

Ask: Bench note: what normalized growth did "NC(N)=NCCCCN=C(N)N" show?
Reply: 0.92

###

Assay: chemical genetic growth profiling, strain panel (AID 1159580);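 further: tested at 20 µM; growth read once vehicle control cultures reached saturation at 30 °C; 1 = growth at the plate median or of vehicle wells; lower values mean less growth of the strain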
Conditions: S. cerevisiae deletion strains, growth OD, locus YLR342W, strain FKS1
Out of some 5,500 compounds screened, about 2,000 (36%) were called active. About 18% were inconclusive and are not listed. Rule as the data show it: active = normalized growth mostly below about 0.91 (no sharp cut-off); inconclusive = no clear call, values can overlap the other calls; inactive = mostly above about 0.92. The list shows a part of the results.
Write down the outcome that applies. Available outcomes: t = active, f = inactive

Ask: Give the logged outcome of this assay for the following molecule: CC(=O)Oc1c2c(c3c(c1CC=C(C)C)O[C@]14C(=C[C@@H]5CC1C(C)(C)OC4(C/C=C(\C)C(=O)O)C5=O)C3=O)OC(C)(CCC=C(C)C)C=C2 (some centres undefined)
Reply: f

Ask: What call does the record list for CC1OC(O[C@H]2/C=C/C=C/C=C/C=C/C=C/C=C/C=C/[C@H](C)[C@@H](O)[C@@H](C)[C@H](C)OC(=O)CC(O)CC(O)CCC(O)C(O)CC(O)C[C@]3(O)C[C@H](O)C(C(=O)O)C(C2)O3)C(O)[C@H](N)C1O (some centres undefined) ?
Reply: t

Ask: Dear colleague, could you share the recorded outcome for "CC(C)c1nc(N(C)S(C)(=O)=O)nc(-c2ccc(F)cc2)c1/C=C/[C@@H](O)C[C@@H](O)CC(=O)O" when you have a moment?
Reply: f

Ask: // outcome(item) with item = O=C(O)CCC1NCC2CC1CN1CCCCC21 (centres undefined)
Reply: f

Ask: # outcome recorded in this test, key = C=CCS(=O)C[C@H](N)C(=O)O (some centres undefined)
Reply: f

Ask: Kindly provide the recorded test outcome for the following molecule: C[C@]12C=CC(=O)C=C1CCC1C2[C@@H](O)C[C@@]2(C)C1CC[C@]2(O)C(=O)CO (some centres undefined)
Reply: f

Ask: # outcome recorded in this test, key = Cc1cccc(C)c1NC(=O)C1CCCCN1C (centres undefined)
Reply: f

Ask: Lab log entry: "COc1cc(NS(C)(=O)=O)ccc1Cc1c2ccccc2nc2ccccc12" — outcome as called in the assay?
Reply: f

Ask: Which result was noted for this molecule in the test: "O=C(O)[C@@H](S)[C@@H](S)C(=O)O"
Reply: f

###

Assay: chemical genetic growth profiling, strain panel (AID 1159580);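 further: tested at 20 µM; growth read once vehicle control cultures reached saturation at 30 °C; 1 = growth at the plate median or of vehicle wells; lower values mean less growth of the strain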
Details: S. cerevisiae deletion strains, growth OD, locus YJL164C, strain tpk1, stronger effect = lower value
In all, about 5,500 compounds went through this assay and about 2,000 (36%) were called active. About 18% were inconclusive and are not listed. The list shows a part of the results. Where a SMILES comes first, the peptide text is derived from it.
PROPERTY LABEL: normalized growth
// response body must contain only the number

Ask: Need normalized growth, item "Clc1ccccc1CN1CCc2sccc2C1"
Reply: 0.994

Ask: Reported normalized growth for CC(=O)Oc1ccc2c(c1)CCC1C2CC[C@]2(C)C(=O)CCC12 (stereo partly drawn) : what is it?
Reply: 0.996

Ask: Give the measured normalized growth of O=c1[nH]c(=O)n(C2C[C@H](O)[C@@H](CO)O2)cc1C(F)(F)F (stereo partly drawn) .
Reply: 0.968

Ask: So what does the record say about normalized growth for C[C@]12CCC3c4ccc(OC(=O)c5ccccc5)cc4CCC3C1CCC2=O (stereo partly drawn) ?
Reply: 0.977

Ask: May I ask what normalized growth has been recorded for CC(C)/C(O)=C1/C(=O)O[C@@H](c2ccoc2)[C@]2(C)C(O)[C@@H](O)[C@@]34OC5(C)OC67CC(C)(C(O)[C@]6(O)[C@@H](O)[C@]3(O5)C12)[C@H](CC(=O)O)[C@]74C (stereo partly drawn) ?
Reply: 0.958

Ask: Recorded normalized growth for CC(=O)N[C@@H](CC(=O)O)C(=O)N[C@@H](CCC(=O)O)C(=O)O (Ac-Asp-Glu-OH) , please?
Reply: 1

Ask: Return reported normalized growth; argument: CC(=O)OCC(=O)[C@@]1(O)CCC2C3CCC4=CC(=O)C=CC4(C)C3[C@@H](O)C[C@@]21C (stereo partly drawn)
Reply: 1.01

Ask: State the recorded normalized growth for this entry: "COc1c(C)c2c(c(O)c1C/C=C(\C)CCC(=O)O)C(=O)OC2"
Reply: 0.469

Ask: Which normalized growth value belongs to CN[C@@H]1C(OC2[C@H](O[C@H]3[C@H](O)[C@@H](O)[C@H](N=C(N)N)[C@@H](O)[C@@H]3N=C(N)N)OC(C)[C@]2(O)CO)OC(CO)C(O)C1O (stereo partly drawn) ?
Reply: 1.02

Ask: What value of normalized growth has been recorded for this entry: COC(=O)[C@@H]1OC(=O)C2OC23[C@@]1(C)CCC1[C@@]2(C)CCC(=O)C(C)(C)C2C[C@@H](OC(C)=O)[C@]13C (stereo partly drawn)
Reply: 1.03

Ask: Entry "NC(N)=NCCN1CCCCCCC1" has what normalized growth?
Reply: 1.04

Ask: GET /values?readout=normalized growth&item= "CC(O)(P(=O)(O)O)P(=O)(O)O"
Reply: 1

Ask: # get_value(readout='normalized growth', item= "NC1(C(=O)O)CC1" )
Reply: 1.02
